system-name: ORF 73 (Human herpesvirus 8, UniProt O40947)
Sequence (O40947 whole entry): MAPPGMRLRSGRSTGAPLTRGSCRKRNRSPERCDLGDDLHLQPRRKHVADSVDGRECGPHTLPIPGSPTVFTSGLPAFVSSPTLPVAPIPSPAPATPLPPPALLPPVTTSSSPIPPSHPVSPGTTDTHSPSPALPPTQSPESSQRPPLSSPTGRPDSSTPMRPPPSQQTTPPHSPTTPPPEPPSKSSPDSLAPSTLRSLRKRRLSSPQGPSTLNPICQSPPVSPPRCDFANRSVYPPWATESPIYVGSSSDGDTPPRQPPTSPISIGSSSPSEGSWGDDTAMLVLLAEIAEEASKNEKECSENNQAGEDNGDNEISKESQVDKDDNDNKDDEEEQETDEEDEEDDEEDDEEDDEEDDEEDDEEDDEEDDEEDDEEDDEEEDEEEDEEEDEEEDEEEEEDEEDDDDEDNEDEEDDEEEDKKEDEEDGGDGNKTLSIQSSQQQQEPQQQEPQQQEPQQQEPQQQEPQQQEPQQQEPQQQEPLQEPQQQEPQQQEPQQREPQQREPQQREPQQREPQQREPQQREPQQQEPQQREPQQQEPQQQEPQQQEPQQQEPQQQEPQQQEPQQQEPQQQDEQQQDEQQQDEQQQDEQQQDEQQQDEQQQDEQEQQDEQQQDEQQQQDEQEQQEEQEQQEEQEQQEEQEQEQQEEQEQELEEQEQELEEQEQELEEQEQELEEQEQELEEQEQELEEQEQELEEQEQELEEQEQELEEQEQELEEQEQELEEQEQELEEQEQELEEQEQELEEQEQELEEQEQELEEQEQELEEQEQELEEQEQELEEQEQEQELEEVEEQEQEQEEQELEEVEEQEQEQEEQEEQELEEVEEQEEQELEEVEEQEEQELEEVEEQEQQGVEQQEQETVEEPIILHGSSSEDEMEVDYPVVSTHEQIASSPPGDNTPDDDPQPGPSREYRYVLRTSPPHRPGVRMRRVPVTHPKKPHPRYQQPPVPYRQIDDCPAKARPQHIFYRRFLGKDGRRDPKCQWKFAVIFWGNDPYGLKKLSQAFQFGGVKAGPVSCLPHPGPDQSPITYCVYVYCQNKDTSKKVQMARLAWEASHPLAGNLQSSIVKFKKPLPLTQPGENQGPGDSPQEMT
protocol-summary: KSHV LANA DNA-binding disruption – biochemical, fluorescence polarization, cherry-picked samples, dose response (AID 504725);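 note: fluorescence polarization of a labeled DNA duplex reporting LANA DNA binding; potency is for inhibitors that block LANA binding to the DNA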
Set-up: species or system Human gammaherpesvirus 8
The source made the active and inactive calls. The rule behind the calls is not given here.
Labels: 1 = active, -1 = inactive

compound: O=C1C(=Cc2ccco2)CCC1=Cc1ccco1
system-name: ORF 73 (Human herpesvirus 8, UniProt O40947)
assigned-label: 1

compound: CN1C(=O)/C(=N\CCc2ccccc2)c2c3ccccc3c(O)c3cccc1c23
system-name: ORF 73 (Human herpesvirus 8, UniProt O40947)
assigned-label: 1

compound: COC(=O)c1ccccc1NC(=O)CCS(=O)(=O)c1ccc(Br)cc1
system-name: ORF 73 (Human herpesvirus 8, UniProt O40947)
assigned-label: 1

compound: O=C(O)c1ccc2c(c1)[C@@H]1C=CC[C@@H]1[C@H](c1ccccn1)N2
system-name: ORF 73 (Human herpesvirus 8, UniProt O40947)
assigned-label: 1

compound: CCOC(=O)C1Nc2ccccc2C2C(O)C(O)CC12 (stereo not given)
system-name: ORF 73 (Human herpesvirus 8, UniProt O40947)
assigned-label: -1
